List of Reactivity (OD 492 nm) values.
# TEST_SYSTEM: T1, HCV bt-141-161 (Peptide 2, HCVc 141-161) (Hepatitis C virus (numbering per HCV-1), biotin (carboxy-terminal per; N-terminal per))
# T1 peptide: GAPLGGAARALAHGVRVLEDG
# EXPERIMENTAL_DETAILS: EIA, captured mAb + biotin peptide
Please reply with the bare figure in OD units and do not write the unit itself.

Short answer for HCV 208A-293 (antibody, V domains shown) VH: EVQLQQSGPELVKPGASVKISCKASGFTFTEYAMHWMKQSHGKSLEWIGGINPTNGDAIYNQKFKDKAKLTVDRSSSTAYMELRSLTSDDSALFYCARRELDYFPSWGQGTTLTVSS VL: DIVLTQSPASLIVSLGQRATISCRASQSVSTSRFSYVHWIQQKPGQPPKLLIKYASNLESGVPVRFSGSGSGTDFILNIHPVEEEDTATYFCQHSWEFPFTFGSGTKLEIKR : Reactivity (OD 492 nm) was 2.42
